Biological target: T1, human CD73 on cells (CD73-transfected HEK cells; native on PBMCs; OCI-AML3 cells) (human, UniProt P21589 27-549)
T1 construct: also called NT5E; gene ID 4907
T1 sequence: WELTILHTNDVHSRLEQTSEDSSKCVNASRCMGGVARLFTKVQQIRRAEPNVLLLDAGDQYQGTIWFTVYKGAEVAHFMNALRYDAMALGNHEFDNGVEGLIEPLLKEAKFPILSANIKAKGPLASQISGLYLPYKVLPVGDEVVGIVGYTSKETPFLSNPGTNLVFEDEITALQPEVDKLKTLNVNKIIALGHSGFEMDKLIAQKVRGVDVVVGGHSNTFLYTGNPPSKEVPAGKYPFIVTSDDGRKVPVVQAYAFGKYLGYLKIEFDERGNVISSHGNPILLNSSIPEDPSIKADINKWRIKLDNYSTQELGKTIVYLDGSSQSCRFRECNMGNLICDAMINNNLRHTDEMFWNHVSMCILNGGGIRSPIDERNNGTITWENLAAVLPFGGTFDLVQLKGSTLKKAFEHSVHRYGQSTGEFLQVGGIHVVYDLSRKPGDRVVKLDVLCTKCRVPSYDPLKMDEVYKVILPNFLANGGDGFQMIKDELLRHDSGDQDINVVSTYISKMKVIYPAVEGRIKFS
Assay: flow cytometry, human CD73-expressing cells; competitor: human IgG hcAb SB141
readout.name: percent inhibition of binding (%)
Field format: number, assumed %, no unit text.

Examples from the recorded data:
[[record]]
binder = "SB143 rabbit IgG hcAb (Fc fusion, not shown: hinge and Fc-domains of rabbit IgG) heavy: QVQLVESGGGLVQAGGSLRLSCAASGRTFSRSTMGWFRQAPGKERVFVAAIRWIGGTTTYGDSVKGRFTISVDNAKNTLYLQMNSLKPEDTAVYYCAATAGGPYYLGGRDILYDYWGQGTQVTVSS"
unit_descriptor = "%"
measured_result = 35

[[record]]
binder = "SB139 rabbit IgG hcAb (Fc fusion, not shown: hinge and Fc-domains of rabbit IgG) heavy: QVQLQESGGGLVQAGGSLRLSCAASENIFNIYGMGWYRQAPGKLRDLVAKITSGGRTTYADSVKGRFTISGDNAKNTVYLQMNSLKPEDTAVYYCNSYYYWGQGTQVTVSS"
unit_descriptor = "%"
measured_result = 47

[[record]]
binder = "SB141 rabbit IgG hcAb (Fc fusion, not shown: hinge and Fc-domains of rabbit IgG) heavy: QVQLVESGGGLVQPGGSLRLSCAASGFTFINYHMSWLRQAPGKGLEWVSEIHSRGDITSYTNSVKGRFTISRDNAKNTLYLQMNSLKFDDTAVYYCARSRDLFNEGEYDYWGRGTQVTVSS"
unit_descriptor = "%"
measured_result = 84


Quick note, percent inhibition of binding for SB116 rabbit IgG hcAb (Fc fusion, also called SB116-rbFc; dimeric SB116 Fc construct; not shown: hinge and Fc-domains of rabbit IgG) heavy: QVKLQESGGGRVQTGGSLRLSCAASGISFSITTMYWYRQAPGEQRQLVALITDRGNTYYVDSVKGRFTISRDDSKNTVYLQMNDLKPEDTAVYFCNSIPGNDWGQGTQVTVSS landed at 47
